Test system: CP237
PROTOCOL_SUMMARY: qHTS profiling for inhibitors of Plasmodium falciparum proliferation (AID 504749); further: nearly all actives have a fitted effect of over 60% in size
TEST_SETTINGS: P. falciparum in erythrocytes, SYBR Green DNA, 72 h; series mostly up to 28.7 µM
Results filed as inconclusive are left out. The source made the active and inactive calls. The call rests on the fitted dose curve; in most records, active means well fitted inhibition curve with a large enough effect; inconclusive means small, poorly fitted or top-dose-only effect; inactive means flat fitted curve, though single readings scatter.
Respond only with the outcome that fits, drawn from yes = active, no = inactive

Examples from the recorded data:
CCCCCCCCCCCCOCCCN :: no
OCC1(CO)COC(C(Cl)(Cl)Cl)OC1 :: no
O=P(O)(O)OP(=O)(O)O :: no

GET /call?item= CN1c2c(nc(N)[nH]c2=O)NCC1CNc1ccc(C(=O)NC(CCC(=O)O)C(=O)O)cc1 (stereo not drawn) returns the recorded outcome of this test. no

GET /call?item= CCCCC returns the recorded outcome of this test. no

GET /call?item= CSc1nc2cc(Oc3cccc(Cl)c3Cl)c(Cl)cc2[nH]1 returns the recorded outcome of this test. yes

GET /call?item= CC1=CC(=O)NS(=O)(=O)O1 returns the recorded outcome of this test. no

GET /call?item= CCN(CC)CCOc1ccccc1OC returns the recorded outcome of this test. no
